- measurement-notes: in vivo
- applied-conditions: female, Syrian golden, hamster, po, 5 mg/kg, Concentration, average
measure: concentration at 4 h
Give me the value, and tack the unit on after it.

[ask] Field request: concentration at 4 h | item: `C[C@H]1Cn2ncc(C(=O)Nc3cccc(C#N)c3)c2C(=O)N1c1ccc(C(F)(F)c2ccccc2)cc1`
[reply] 264 ng/mL

----------
- Tested on: MHV
- measurement-notes: MHV antiviral assay in HeLa cells (luciferase)
- Type: cell-based, mouse hepatitis virus
- applied-conditions: Murine coronavirus, read-out: EC50 (column Median EC50; N=1, no median), MHV (betaCoV)
measure: EC50 (nM)
Just the number please, in nM, no unit attached.

[ask] Field request: EC50 | item: `C[C@H]1Cn2ncc(C(=O)Nc3cccc(C#N)c3)c2C(=O)N1c1ccc(C(F)(F)c2ccccc2)cc1`
[reply] 1300

----------
- measurement-notes: in vivo
- applied-conditions: female, Syrian golden, hamster, po, 50 mg/kg, Concentration, average
measure: concentration at 24 h
Give me the value, and tack the unit on after it.

[ask] Field request: concentration at 24 h | item: C[C@H]1Cn2ncc(C(=O)Nc3cccc(C#N)c3)c2C(=O)N1c1ccc(C(F)(F)c2ccccc2)cc1 [JNJ-9676]
[reply] 655 ng/mL

----------
- measurement-notes: in vivo
- applied-conditions: female, Syrian golden, hamster, po, 5 mg/kg, Concentration, average
measure: concentration at 0.5 h (ng/mL)
Just the number please, in ng/mL, no unit attached.

[ask] Field request: concentration at 0.5 h | item: `C[C@H]1Cn2ncc(C(=O)Nc3cccc(C#N)c3)c2C(=O)N1c1ccc(C(F)(F)c2ccccc2)cc1`
[reply] 68.1

----------
- measurement-notes: in vivo
- applied-conditions: female, Syrian golden, hamster, po, 50 mg/kg, Concentration, individual animal
measure: concentration at 2 h (ng/mL)
Just the number please, in ng/mL, no unit attached.

[ask] Field request: concentration at 2 h | item: `C[C@H]1Cn2ncc(C(=O)Nc3cccc(C#N)c3)c2C(=O)N1c1ccc(C(F)(F)c2ccccc2)cc1`
[reply] 1580

----------
- measurement-notes: in vivo
- applied-conditions: female, Syrian golden, hamster, po, 50 mg/kg, Concentration, individual animal
measure: concentration at 7 h (ng/mL)
Just the number please, in ng/mL, no unit attached.

[ask] Field request: concentration at 7 h | item: C[C@H]1Cn2ncc(C(=O)Nc3cccc(C#N)c3)c2C(=O)N1c1ccc(C(F)(F)c2ccccc2)cc1 [JNJ-9676]
[reply] 1510

----------
- measurement-notes: in vivo
- applied-conditions: rat
measure: half-life (h)
Just the number please, in h, no unit attached.

[ask] Field request: half-life | item: `C[C@H]1Cn2ncc(C(=O)Nc3cccc(C#N)c3)c2C(=O)N1c1ccc(C(F)(F)c2ccccc2)cc1`
[reply] 19

----------
- measurement-notes: in vivo
- applied-conditions: female, Syrian golden, hamster, po, 50 mg/kg, Concentration, individual animal
measure: concentration at 4 h (ng/mL)
Just the number please, in ng/mL, no unit attached.

[ask] Field request: concentration at 4 h | item: C[C@H]1Cn2ncc(C(=O)Nc3cccc(C#N)c3)c2C(=O)N1c1ccc(C(F)(F)c2ccccc2)cc1 [JNJ-9676]
[reply] 2230

----------
- measurement-notes: in vitro
- applied-conditions: human, Median CC50, Huh7, line of MHV, N=2
measure: CC50

[ask] Field request: CC50 | item: `C[C@H]1Cn2ncc(C(=O)Nc3cccc(C#N)c3)c2C(=O)N1c1ccc(C(F)(F)c2ccccc2)cc1`
[reply] > 20 µM

----------
- measurement-notes: in vivo
- applied-conditions: female, Syrian golden, hamster, po, 5 mg/kg, Concentration, average
measure: concentration at 1 h (ng/mL)
Just the number please, in ng/mL, no unit attached.

[ask] Field request: concentration at 1 h | item: `C[C@H]1Cn2ncc(C(=O)Nc3cccc(C#N)c3)c2C(=O)N1c1ccc(C(F)(F)c2ccccc2)cc1`
[reply] 114

----------
- measurement-notes: in vivo
- applied-conditions: Syrian golden, hamster
measure: half-life (h)
Just the number please, in h, no unit attached.

[ask] Field request: half-life | item: `C[C@H]1Cn2ncc(C(=O)Nc3cccc(C#N)c3)c2C(=O)N1c1ccc(C(F)(F)c2ccccc2)cc1`
[reply] 13

----------
- measurement-notes: in vivo
- applied-conditions: Syrian golden, hamster
measure: clearance
Give me the value, and tack the unit on after it.

[ask] Field request: clearance | item: `C[C@H]1Cn2ncc(C(=O)Nc3cccc(C#N)c3)c2C(=O)N1c1ccc(C(F)(F)c2ccccc2)cc1`
[reply] 9 mL/min/kg

----------
- measurement-notes: in vivo
- applied-conditions: Syrian golden, hamster, po
measure: bioavailability

[ask] Field request: bioavailability | item: `C[C@H]1Cn2ncc(C(=O)Nc3cccc(C#N)c3)c2C(=O)N1c1ccc(C(F)(F)c2ccccc2)cc1`
[reply] > 50%

----------
- Test system: Huh7 cells
- applied-conditions: human
measure: CC50

[ask] Field request: CC50 | item: `C[C@H]1Cn2ncc(C(=O)Nc3cccc(C#N)c3)c2C(=O)N1c1ccc(C(F)(F)c2ccccc2)cc1`
[reply] > 30 µM

----------
- measurement-notes: in vivo
- applied-conditions: female, Syrian golden, hamster, po, 5 mg/kg, Concentration, average
measure: concentration at 24 h (ng/mL)
Just the number please, in ng/mL, no unit attached.

[ask] Field request: concentration at 24 h | item: C[C@H]1Cn2ncc(C(=O)Nc3cccc(C#N)c3)c2C(=O)N1c1ccc(C(F)(F)c2ccccc2)cc1 [JNJ-9676]
[reply] 82.6

----------
- measurement-notes: in vivo
- applied-conditions: dog
measure: half-life

[ask] Field request: half-life | item: `C[C@H]1Cn2ncc(C(=O)Nc3cccc(C#N)c3)c2C(=O)N1c1ccc(C(F)(F)c2ccccc2)cc1`
[reply] > 40 h

----------
- measurement-notes: in vivo
- applied-conditions: female, Syrian golden, hamster, po, 5 mg/kg, Concentration, individual animal
measure: concentration at 0.5 h (ng/mL)
Just the number please, in ng/mL, no unit attached.

[ask] Field request: concentration at 0.5 h | item: `C[C@H]1Cn2ncc(C(=O)Nc3cccc(C#N)c3)c2C(=O)N1c1ccc(C(F)(F)c2ccccc2)cc1`
[reply] 71

----------
- measurement-notes: in vivo
- applied-conditions: female, Syrian golden, hamster, po, 50 mg/kg, Concentration, average
measure: concentration at 4 h (ng/mL)
Just the number please, in ng/mL, no unit attached.

[ask] Field request: concentration at 4 h | item: `C[C@H]1Cn2ncc(C(=O)Nc3cccc(C#N)c3)c2C(=O)N1c1ccc(C(F)(F)c2ccccc2)cc1`
[reply] 2430

----------
- measurement-notes: in vitro
- applied-conditions: human
measure: CC50 at 6 days

[ask] Field request: CC50 at 6 days | item: `C[C@H]1Cn2ncc(C(=O)Nc3cccc(C#N)c3)c2C(=O)N1c1ccc(C(F)(F)c2ccccc2)cc1`
[reply] > 50 µM

----------
- measurement-notes: in vitro
- applied-conditions: human, Median CC50
measure: CC50

[ask] Field request: CC50 | item: C[C@H]1Cn2ncc(C(=O)Nc3cccc(C#N)c3)c2C(=O)N1c1ccc(C(F)(F)c2ccccc2)cc1 [JNJ-9676]
[reply] > 20 µM

----------
- measurement-notes: in vivo
- applied-conditions: female, Syrian golden, hamster, iv, 1 mg/kg, Concentration, individual animal
measure: concentration at 2 h (ng/mL)
Just the number please, in ng/mL, no unit attached.

[ask] Field request: concentration at 2 h | item: `C[C@H]1Cn2ncc(C(=O)Nc3cccc(C#N)c3)c2C(=O)N1c1ccc(C(F)(F)c2ccccc2)cc1`
[reply] 170

----------
- measurement-notes: in vivo
- applied-conditions: female, Syrian golden, hamster, po, 50 mg/kg, Concentration, individual animal
measure: concentration at 1 h (ng/mL)
Just the number please, in ng/mL, no unit attached.

[ask] Field request: concentration at 1 h | item: C[C@H]1Cn2ncc(C(=O)Nc3cccc(C#N)c3)c2C(=O)N1c1ccc(C(F)(F)c2ccccc2)cc1 [JNJ-9676]
[reply] 829

----------
- measurement-notes: in vivo
- applied-conditions: female, Syrian golden, hamster, iv, 1 mg/kg, Concentration, individual animal
measure: concentration at 7 h (ng/mL)
Just the number please, in ng/mL, no unit attached.

[ask] Field request: concentration at 7 h | item: `C[C@H]1Cn2ncc(C(=O)Nc3cccc(C#N)c3)c2C(=O)N1c1ccc(C(F)(F)c2ccccc2)cc1`
[reply] 45.4

----------
- measurement-notes: in vivo
- applied-conditions: female, Syrian golden, hamster, po, 5 mg/kg, Concentration, individual animal
measure: concentration at 1 h (ng/mL)
Just the number please, in ng/mL, no unit attached.

[ask] Field request: concentration at 1 h | item: C[C@H]1Cn2ncc(C(=O)Nc3cccc(C#N)c3)c2C(=O)N1c1ccc(C(F)(F)c2ccccc2)cc1 [JNJ-9676]
[reply] 95.4

Each recorded value in this set is attributed to paper PMC11981937.
